Values were extracted from ChEMBL document CHEMBL4834480.

experiment: Clearance in Sprague-Dawley rat at 3 mg/kg, iv measured up to 24 hrs by LC-MS/MS analysis; format: ADME, organism-based; settings: in vivo
Property name: clearance

{"Structure string": "CC(=O)c1ccc(S(=O)(=O)c2c(C)c(C(=O)O)n(CCCOc3cc(C)c(Cl)c(C)c3)c2C)cc1", "Reported": "15.2 mL/min/kg"}

* * *

assay: Intrinsic clearance in human liver microsomes; assay type: ADME, Microsome; details: read-out: CLH

{"Structure string": "CC(=O)c1ccc(S(=O)(=O)c2c(C)c(C(=O)O)n(CCCOc3cc(C)c(Cl)c(C)c3)c2C)cc1", "microsomal CLint (µL/min/mg)": 67.5}

* * *

molecular target: Induced myeloid leukemia cell differentiation protein Mcl-1 (Homo sapiens, UniProt Q07820); assay: Inhibition of FITC-labeled Bak BH3 peptide binding to GST-tagged MCL1 (171 to 327 residues) (unknown origin) expressed in Escherichia coli BL21 (DE3) incubated for 30 mins fluorescence polarization-based competitive binding assay
Sequence (Q07820 whole entry, the tested form may be a part): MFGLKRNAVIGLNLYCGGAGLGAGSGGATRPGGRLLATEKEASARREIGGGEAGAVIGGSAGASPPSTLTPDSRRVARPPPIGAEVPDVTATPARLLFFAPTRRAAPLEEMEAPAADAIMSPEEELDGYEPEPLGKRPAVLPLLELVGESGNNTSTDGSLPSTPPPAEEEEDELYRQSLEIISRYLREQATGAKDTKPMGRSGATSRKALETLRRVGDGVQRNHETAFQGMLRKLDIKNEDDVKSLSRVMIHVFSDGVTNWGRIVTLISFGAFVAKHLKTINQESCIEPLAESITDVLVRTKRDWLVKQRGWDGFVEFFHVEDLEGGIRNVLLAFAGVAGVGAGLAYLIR
pKi: −log10 of the molar value.

{"Structure string": "Cc1nn(C)c(COc2ccc(N3CCN(S(=O)(=O)N(C)C)CC3)cc2)c1-c1cccc2c(CCCOc3cccc4ccccc34)c(C(=O)O)n(CCN3CCOCC3)c12", "Target system": "Induced myeloid leukemia cell differentiation protein Mcl-1 (Homo sapiens, UniProt Q07820)", "Readout qualifier": "=", "pKi": 8.22}
{"Structure string": "COc1ccccc1S(=O)(=O)c1c(C)c(C(=O)O)n(CCCOc2cc(C)c(Cl)c(C)c2)c1C", "Target system": "Induced myeloid leukemia cell differentiation protein Mcl-1 (Homo sapiens, UniProt Q07820)", "Readout qualifier": "=", "pKi": 6.37}
{"Structure string": "Cc1cc(OCCCn2c(C)c(S(=O)(=O)c3ccc(Br)cc3)c(C)c2C(=O)O)cc(C)c1Cl", "Target system": "Induced myeloid leukemia cell differentiation protein Mcl-1 (Homo sapiens, UniProt Q07820)", "Readout qualifier": "=", "pKi": 7.40}
{"Structure string": "Cc1ccc(C(=O)c2cc(C(=O)O)n(CCCOc3cc(C)c(Cl)c(C)c3)c2)cc1", "Target system": "Induced myeloid leukemia cell differentiation protein Mcl-1 (Homo sapiens, UniProt Q07820)", "Readout qualifier": "=", "pKi": 6.15}
{"Structure string": "Cc1cc(OCCCn2c(C)c(S(=O)(=O)C3CCCC3)c(C)c2C(=O)O)cc(C)c1Cl", "Target system": "Induced myeloid leukemia cell differentiation protein Mcl-1 (Homo sapiens, UniProt Q07820)", "Readout qualifier": "<", "pKi": 5.00}
{"Structure string": "Cc1cc(OCCCn2c(C)c(S(=O)(=O)c3ccc(C(C)C)cc3)c(C)c2C(=O)O)cc(C)c1Cl", "Target system": "Induced myeloid leukemia cell differentiation protein Mcl-1 (Homo sapiens, UniProt Q07820)", "Readout qualifier": "=", "pKi": 6.77}
{"Structure string": "Cc1ccc(S(=O)(=O)c2c(CC(C)C)c(C(=O)O)n(CCCOc3cc(C)c(Cl)c(C)c3)c2C)cc1", "Target system": "Induced myeloid leukemia cell differentiation protein Mcl-1 (Homo sapiens, UniProt Q07820)", "Readout qualifier": "=", "pKi": 6.62}
{"Structure string": "Cc1cc(OCCCn2c(C)c(S(=O)(=O)C3CCCCC3)c(C)c2C(=O)O)cc(C)c1Cl", "Target system": "Induced myeloid leukemia cell differentiation protein Mcl-1 (Homo sapiens, UniProt Q07820)", "Readout qualifier": "<", "pKi": 5.00}

* * *

target: P-gp (Homo sapiens, UniProt P08183); assay: Substrate activity at P-gp in human Caco-2 cells assessed as efflux ratio of permeability by LC-MS/MS analysis; assay type: ADME, cell-based
Sequence (P08183 whole entry): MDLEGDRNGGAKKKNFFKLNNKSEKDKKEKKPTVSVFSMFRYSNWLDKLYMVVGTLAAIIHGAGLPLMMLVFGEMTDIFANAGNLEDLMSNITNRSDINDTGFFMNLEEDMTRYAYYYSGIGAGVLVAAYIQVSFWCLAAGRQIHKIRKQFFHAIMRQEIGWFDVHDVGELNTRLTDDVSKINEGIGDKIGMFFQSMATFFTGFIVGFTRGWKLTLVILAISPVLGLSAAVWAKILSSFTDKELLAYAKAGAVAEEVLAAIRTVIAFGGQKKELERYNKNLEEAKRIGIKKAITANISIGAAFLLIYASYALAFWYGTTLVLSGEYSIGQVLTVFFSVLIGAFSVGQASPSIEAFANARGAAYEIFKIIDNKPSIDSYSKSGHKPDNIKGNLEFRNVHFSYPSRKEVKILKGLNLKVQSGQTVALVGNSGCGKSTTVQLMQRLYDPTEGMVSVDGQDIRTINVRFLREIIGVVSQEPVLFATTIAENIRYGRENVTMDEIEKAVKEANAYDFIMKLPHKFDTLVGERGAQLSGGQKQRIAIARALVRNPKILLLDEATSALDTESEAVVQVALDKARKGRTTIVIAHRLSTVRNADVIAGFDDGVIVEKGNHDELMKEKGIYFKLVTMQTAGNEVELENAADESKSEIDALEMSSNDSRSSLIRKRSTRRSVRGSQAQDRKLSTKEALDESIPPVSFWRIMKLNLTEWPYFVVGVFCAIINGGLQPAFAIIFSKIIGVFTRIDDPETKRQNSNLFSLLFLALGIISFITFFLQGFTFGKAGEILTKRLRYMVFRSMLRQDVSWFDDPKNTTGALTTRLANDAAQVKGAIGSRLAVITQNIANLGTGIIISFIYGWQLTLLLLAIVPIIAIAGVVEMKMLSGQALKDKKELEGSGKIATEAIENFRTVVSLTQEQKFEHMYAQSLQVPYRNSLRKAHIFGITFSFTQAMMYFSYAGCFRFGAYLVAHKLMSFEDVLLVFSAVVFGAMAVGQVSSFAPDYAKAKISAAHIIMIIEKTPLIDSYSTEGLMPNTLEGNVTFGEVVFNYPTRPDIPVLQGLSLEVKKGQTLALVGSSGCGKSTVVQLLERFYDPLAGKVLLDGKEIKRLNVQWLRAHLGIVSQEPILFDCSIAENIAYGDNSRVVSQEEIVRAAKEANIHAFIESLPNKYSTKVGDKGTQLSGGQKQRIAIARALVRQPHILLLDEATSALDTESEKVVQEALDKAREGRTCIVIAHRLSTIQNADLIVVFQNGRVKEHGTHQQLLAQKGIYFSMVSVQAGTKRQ

{"Structure string": "CC(=O)c1ccc(S(=O)(=O)c2c(C)c(C(=O)O)n(CCCOc3cc(C)c(Cl)c(C)c3)c2C)cc1", "efflux ratio": 0.1}

* * *

assay: Half life in Sprague-Dawley rat at 3 mg/kg, iv measured up to 24 hrs by LC-MS/MS analysis; assay type: ADME, organism-based; details: in vivo

{"Structure string": "CC(=O)c1ccc(S(=O)(=O)c2c(C)c(C(=O)O)n(CCCOc3cc(C)c(Cl)c(C)c3)c2C)cc1", "half-life (min)": 138}

* * *

molecular target: Bcl-2-like protein 1 (Homo sapiens, UniProt Q07817); assay: Inhibition of BCL-XL(unknown origin) at 10 uM incubated for 120 mins by TR-FRET assay relative to control
Sequence (Q07817 whole entry): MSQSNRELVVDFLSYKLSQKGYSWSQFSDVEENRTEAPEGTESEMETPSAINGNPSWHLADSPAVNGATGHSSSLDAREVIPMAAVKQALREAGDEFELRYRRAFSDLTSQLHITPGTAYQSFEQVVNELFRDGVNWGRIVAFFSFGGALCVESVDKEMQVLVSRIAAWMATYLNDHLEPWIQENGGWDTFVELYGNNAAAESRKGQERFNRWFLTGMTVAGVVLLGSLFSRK
inhibition by entry:

{"Structure string": "CCc1ccc(S(=O)(=O)c2c(C)c(C(=O)O)n(CCCOc3cc(C)c(Cl)c(C)c3)c2C)cc1", "inhibition": "36%"}
{"Structure string": "Cc1cc(OCCCn2c(C)c(S(=O)(=O)c3cccs3)c(C)c2C(=O)O)cc(C)c1Cl", "inhibition": "37%"}
{"Structure string": "COc1ccc(S(=O)(=O)c2c(C)c(C(=O)O)n(CCCOc3cc(C)c(Cl)c(C)c3)c2C)cc1", "inhibition": "27%"}
{"Structure string": "Cc1cc(OCCCn2c(C)c(S(=O)(=O)c3ccc(Br)cc3)c(C)c2C(=O)O)cc(C)c1Cl", "inhibition": "13%"}

* * *

assay: Permeability of the compound at pH 7.4 measured after 4 hrs by PAMPA assay; assay type: ADME; conditions: read-out: permeability

{"Structure string": "CC(=O)c1ccc(S(=O)(=O)c2c(C)c(C(=O)O)n(CCCOc3cc(C)c(Cl)c(C)c3)c2C)cc1", "Papp at 4 h [×10⁻⁶ cm/s]": 52.6}

* * *

assay: Half life in rat liver microsomes; assay type: ADME, Microsome
Property name: half-life (min)

{"Structure string": "CC(=O)c1ccc(S(=O)(=O)c2c(C)c(C(=O)O)n(CCCOc3cc(C)c(Cl)c(C)c3)c2C)cc1", "Property name": "half-life", "Reported": 45}

* * *

biological target: CYP2D6 (Homo sapiens, UniProt P10635); test: Inhibition of CYP2D6 (unknown origin) at 10 uM preincubated for 5 min followed by NADPH addition and measured after 20 mins by LC-MS/MS analysis relative to control; assay type: ADME; conditions: time 25 min
Sequence (P10635 whole entry): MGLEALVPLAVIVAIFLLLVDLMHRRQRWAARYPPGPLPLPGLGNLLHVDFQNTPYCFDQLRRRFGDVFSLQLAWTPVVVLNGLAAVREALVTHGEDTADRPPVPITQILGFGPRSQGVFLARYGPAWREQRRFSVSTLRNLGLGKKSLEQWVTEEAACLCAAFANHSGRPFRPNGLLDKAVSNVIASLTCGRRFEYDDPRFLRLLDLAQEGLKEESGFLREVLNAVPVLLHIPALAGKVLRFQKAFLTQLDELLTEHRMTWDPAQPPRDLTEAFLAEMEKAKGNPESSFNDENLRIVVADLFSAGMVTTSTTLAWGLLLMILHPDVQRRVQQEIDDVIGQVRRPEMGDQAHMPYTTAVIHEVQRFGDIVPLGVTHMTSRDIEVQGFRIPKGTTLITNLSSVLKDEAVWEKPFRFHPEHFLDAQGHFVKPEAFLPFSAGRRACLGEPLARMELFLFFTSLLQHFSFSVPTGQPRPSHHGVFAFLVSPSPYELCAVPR
Property name: inhibition at 20 min, 10 µM (%)

{"Structure string": "CC(=O)c1ccc(S(=O)(=O)c2c(C)c(C(=O)O)n(CCCOc3cc(C)c(Cl)c(C)c3)c2C)cc1", "Target system": "CYP2D6 (Homo sapiens, UniProt P10635)", "Reported": 9.13}

* * *

test: Oral bioavailability in Sprague-Dawley rat at 10 mg/kg measured up to 24 hrs by LC-MS/MS analysis; type: ADME, organism-based; conditions: in vivo

{"Structure string": "CC(=O)c1ccc(S(=O)(=O)c2c(C)c(C(=O)O)n(CCCOc3cc(C)c(Cl)c(C)c3)c2C)cc1", "Unit string": "%", "bioavailability": 41.3}

* * *

assay: Stability of the compound in human plasma assessed as parent compound remaining measured after 2 hrs by LC-MS/MS analysis; type: ADME, cell-free; details: read-out: Stabilty

{"Structure string": "CC(=O)c1ccc(S(=O)(=O)c2c(C)c(C(=O)O)n(CCCOc3cc(C)c(Cl)c(C)c3)c2C)cc1", "Unit string": "%", "remaining at 2 h": 96.5}

* * *

target: Apoptosis regulator Bcl-2 (Homo sapiens, UniProt P10415); assay: Inhibition of FITC-labeled Bak BH3 peptide binding to GST-tagged BCL2 (1 to 205 residues) (unknown origin) expressed in Escherichia coli BL21 (DE3) at 10 uM incubated for 30 mins fluorescence polarization-based competitive binding assay relative to control
Sequence (P10415 whole entry, the tested form may be a part): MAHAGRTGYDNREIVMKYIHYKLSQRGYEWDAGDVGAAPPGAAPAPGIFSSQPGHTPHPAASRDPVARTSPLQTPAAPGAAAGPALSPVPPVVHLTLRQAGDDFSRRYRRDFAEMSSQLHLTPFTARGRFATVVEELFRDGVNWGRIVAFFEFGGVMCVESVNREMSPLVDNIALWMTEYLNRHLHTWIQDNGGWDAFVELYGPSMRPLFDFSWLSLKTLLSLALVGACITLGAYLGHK
If the reported inhibition equals or exceeds 10%, assign true. If not, assign false.

{"Structure string": "Cc1cc(OCCCn2c(C)c(S(=O)(=O)c3ccc(Br)cc3)c(C)c2C(=O)O)cc(C)c1Cl", "Label value": "true"}
{"Structure string": "Cc1cc(OCCCn2c(C)c(S(=O)(=O)c3cccs3)c(C)c2C(=O)O)cc(C)c1Cl", "Label value": "false"}
{"Structure string": "COc1ccc(S(=O)(=O)c2c(C)c(C(=O)O)n(CCCOc3cc(C)c(Cl)c(C)c3)c2C)cc1", "Label value": "true"}
{"Structure string": "CCc1ccc(S(=O)(=O)c2c(C)c(C(=O)O)n(CCCOc3cc(C)c(Cl)c(C)c3)c2C)cc1", "Label value": "true"}

* * *

Biological target: Bcl-2-like protein 2 (Homo sapiens)
Sequence (Q92843 whole entry): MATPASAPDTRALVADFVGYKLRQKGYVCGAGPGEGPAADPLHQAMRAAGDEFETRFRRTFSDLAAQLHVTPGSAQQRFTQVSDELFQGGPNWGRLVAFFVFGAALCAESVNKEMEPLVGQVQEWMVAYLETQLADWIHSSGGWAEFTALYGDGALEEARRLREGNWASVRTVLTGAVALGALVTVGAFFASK
pKd: −log10 of the molar value.
Property name: pKd

{"Structure string": "CC(=O)c1ccc(S(=O)(=O)c2c(C)c(C(=O)O)n(CCCOc3cc(C)c(Cl)c(C)c3)c2C)cc1", "Reported": "< 5.00"}
